Consider the following molecules and their measured Inhibition readings.
test system: Plasmodium falciparum; experiment: GSK_TCMDC: Inhibition of Plasmodium falciparum 3D7 in whole red blood cells, using parasite LDH activity as an index of growth. Test compounds present at 2uM; assay type: functional
Quantity measured: Inhibition (%)

• O=C(/C=C/c1ccc(Cl)c(Cl)c1)NCCCCCN1CCC(NC(=O)Nc2cc(F)cc(F)c2)CC1 = 100
• COCCCNC(=O)C1CCN(C(c2ccc(Cl)cc2)c2ccc(Cl)cc2)CC1 = 91
• COc1cc(-c2nc(-c3ccncc3)c(-c3ccc4c(c3)CCC4=NO)[nH]2)ccc1OCCN1CCCCC1.Cl = 100
• O=C(/C=C/c1ccc(C(F)(F)F)cc1)NCCCCCN1CCN(C(=O)Nc2ccc(Cl)cc2)CC1 = 88
• Cc1[nH]c(C)c(-c2ccc(OCc3ccc(OC(F)(F)F)cc3)nc2)c(=O)c1Br = 98
• O=C(C=Cc1cn(-c2ccccc2)nc1-c1cccs1)N1CCN(c2ccncc2)CC1 = 100
• CN(C)CCCn1c(N)c(-c2nc3ccccc3[nH]2)c2nc(C#N)c(C#N)nc21 = 100
• CN1CCN(c2ccc(-c3cccc(NC(=O)c4cccc(Cl)c4)c3)nn2)CC1 = 94
• CC(C)(C)c1ccc(NC(=O)c2ccc(CN3CCCN(CC4CCCCC4)CC3)cc2)cc1.O=C(O)C(F)(F)F = 99
• CN1CCN(Cc2cccc(-c3cc4nccc(Nc5ccc(Oc6ccccc6)cc5)c4cc3Cl)c2)CC1 = 100
• CC(C(=O)NC1CCN(c2ccnc(Nc3ccc(F)cc3)n2)C1)c1ccc(Cl)cc1 (stereo not drawn) = 95
• CNC(=O)c1cc(F)c(F)cc1Nc1nc(Nc2cccc(CS(C)(=O)=O)c2)ncc1Cl.O=CO = 91
• CNC(=O)c1cnc(Nc2ccc(N3CCN(C)CC3)cc2)nc1Nc1cccc(OC)c1.O=C(O)C(F)(F)F = 100
• CCOC(=O)C1=C(C)NC2=C(C(=O)C(C(=O)OC)C(C)C2)C1c1cc(Br)c(OCC)c(OC)c1 (stereo not drawn) = 100
• CN(C)CCOc1ccc(NC(=O)NC(C)(C)c2nc(-c3ccc(Cl)c(O)c3)c(-c3ccncc3)[nH]2)cc1.Cl = 98
• Cc1cccc2nc(-c3ccc(-c4ccc(CN5CCN(CCO)CC5)cc4)cc3)[nH]c12.O=C(O)C(F)(F)F = 100
• COc1ccc2[nH]c(C(=O)Nc3ccc4[nH]c(-c5ccccc5)nc4c3)cc2c1.O=C(O)C(F)(F)F = 96
• CCOCCCn1c(=N)c(C(=O)NC(C)c2ccccc2)cc2c(=O)n3cccc(C)c3nc21 (stereo not drawn) = 95

The origin of these recorded values is ChEMBL document CHEMBL1157539.
